Source of measurements: paper PMC7211837

TARGET SYSTEM: membrane-bound human MAO-A (Homo sapiens)
Sequence (P21397 whole entry): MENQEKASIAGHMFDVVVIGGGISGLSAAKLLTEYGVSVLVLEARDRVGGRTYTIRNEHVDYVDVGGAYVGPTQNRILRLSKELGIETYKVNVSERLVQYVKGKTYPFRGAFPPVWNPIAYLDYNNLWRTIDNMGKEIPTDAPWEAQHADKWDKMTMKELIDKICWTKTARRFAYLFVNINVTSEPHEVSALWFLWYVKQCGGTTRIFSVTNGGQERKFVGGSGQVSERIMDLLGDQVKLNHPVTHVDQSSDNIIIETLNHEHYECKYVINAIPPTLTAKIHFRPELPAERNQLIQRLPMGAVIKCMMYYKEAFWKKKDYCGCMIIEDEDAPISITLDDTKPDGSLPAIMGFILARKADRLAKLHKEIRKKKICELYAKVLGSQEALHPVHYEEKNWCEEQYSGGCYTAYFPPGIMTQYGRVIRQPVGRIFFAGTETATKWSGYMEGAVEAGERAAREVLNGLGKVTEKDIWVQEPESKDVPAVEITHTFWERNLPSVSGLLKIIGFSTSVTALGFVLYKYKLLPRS
PROTOCOL: MAO-A inhibition, H2O2/horseradish peroxidase coupled fluorescence assay with tyramine
Assay type: biochemical
CONDITION SUMMARY: read-out: % inhibition at 10 μM hMAO-A; 10 μM compound; tyramine 0.8 mM (2 × KM); average of two independent experiments
Description: Incomplete inhibition of activity could arise either from indirect effects on these enzymes or from the compounds acting as substrates at the highest concentrations. The activity of MAO was determined using the coupled assay method of [41, 42] in which the product, H2O2, acts with horseradish peroxidase to convert 10-acetyl-3,7-dihydroxyphenoxazine to the fluorescent resorufin. […] The data were analysed using the equation for a three-parameter curve in Graphpad PRISM v. […]
Given measured inhibition at 10 µM, output y if it is greater than or equal to 10% and n if not.

INSERT INTO assay_data (molecule, discrete_label) VALUES
  ('COc1cc(C=NNC(=O)CN2C(=O)c3cc(Cl)ccc3NC2c2ccccc2)ccc1O (centres unmarked)', 'y'),
  ('COC(=O)CN1C(=O)c2ccccc2NC1c1ccccc1 (centres unmarked)', 'n'),
  ('O=C(CN1C(=O)c2cc(Cl)ccc2NC1c1ccccc1)NN=Cc1ccc(O)cc1 (centres unmarked)', 'y'),
  ('O=C(CN1C(=O)c2ccccc2NC1c1ccccc1)NN=Cc1ccc(O)cc1 (centres unmarked)', 'n');
